src = patent US8772304B2

# target: recombinant human FLAP protein (Homo sapiens (Human), UniProt P20292)
# Sequence (P20292 whole entry): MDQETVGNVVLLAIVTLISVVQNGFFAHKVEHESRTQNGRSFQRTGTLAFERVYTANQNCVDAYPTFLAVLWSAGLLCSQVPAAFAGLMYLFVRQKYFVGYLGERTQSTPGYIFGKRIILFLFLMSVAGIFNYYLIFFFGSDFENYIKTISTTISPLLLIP
# experiment-summary: FLAP binding assay (Scintillation Proximity Assay, displacement of iodinated FLAP inhibitor)
# measurement-parameters: displacement of [125I]L-691,831; membranes of sf9 cells expressing recombinant human FLAP; read-out: hFLAP binding IC50
# Method: Compounds are assessed for the ability to bind to FLAP in a binding assay that measures compound-specific displacement of an iodinated (^125I) FLAP inhibitor via a Scintillation Proximity Assay format (adapted from S. Charleson et al., Mol. Pharmacol., 1992, 41, 873-879). Cell pellets produced from sf9 insect cells expressing recombinant human FLAP protein are resuspended in buffer A [15 mM Tris-HCl (pH 7.5), 2 mM MgCl2, 0.3 mM EDTA, 1 mM PMSF]. […]
pIC50: −log10 of the molar value.
Tag: yes (1) if measured pIC50 is not below 7, no (0) if it is.

// inclusive: pIC50 at least 7? input: `COc1cc(-c2nc3cc(-c4cnc(N)nc4)ccc3n2C(C)(C)C)c(F)cn1`
yes (1)

Identify whether the reported pIC50 of the following molecule is 7 or greater: `CCOc1ncccc1-c1nc2cc(-c3cnc(N)nc3)ccc2n1C(C)(C)C`
yes (1)

Kindly determine if pIC50 recorded for `Cc1ncn(-c2ccc(C#N)nc2-c2nc3cc(-c4cnc(N)nc4)ccc3n2C2(C)CCC2)n1` is above or exactly 7.
yes (1)

Does the molecule `CC(C)(C)n1c(-c2nc(C3CC3)ccc2-n2cncn2)nc2cc(-c3cnc(N)nc3)ccc21` have recorded pIC50 that is 7 or more?
yes (1)

Check this molecule for pIC50 at or above 7: `CC(C)(C)n1c(-c2cccc(F)n2)nc2cc(-c3cnc(NCc4cccc(F)n4)nc3)ccc21`
no (0)

Has `Cc1ncn(-c2ccc(C#N)nc2-c2nc3cc(-c4cnc(N)nc4)ccc3n2C(C)(C)C)n1` a recorded pIC50 greater than or equal to 7?
yes (1)

hey, is pIC50 for this one >= 7? `CC(C)(C)Oc1cccc(-c2nc3cc(-c4cnc(N)nc4)ccc3n2C(C)(C)C)n1`
yes (1)

Can `Cc1ncnn1-c1ccc(C#N)nc1-c1nc2cc(-c3cnc(N)nc3)ccc2n1C(C)(C)C` be said to have pIC50 at or above 7?
yes (1)

hey, is pIC50 for this one >= 7? `CNC(=O)c1cccnc1-c1nc2cc(-c3cnc(N)nc3)ccc2n1C(C)(C)C`
no (0)

Could you please find out whether `COc1ncccc1-c1nc2cc(-c3cnc(N)nc3)ccc2n1C(C)(C)C` has pIC50 that meets 7 or exceeds it?
no (0)

Evaluate `CC(C)(C)n1c(-c2cccnc2-n2cncn2)nc2cc(-c3cnc(N)nc3)ccc21` : pIC50 at minimum 7?
yes (1)

Please check the record `CC(C)(C)n1c(-c2cccnc2)nc2cc(-c3cnc(N)nc3)ccc21` and state if its pIC50 is at or above 7.
no (0)

Given the entry `CC(C)(C)n1c(-c2nc(C#N)ccc2-n2cncn2)nc2cc(-c3cnc(N)nc3)ccc21` , answer whether its pIC50 meets or surpasses 7.
yes (1)

Check if pIC50 >= 7 (inclusive). Item: `COc1cccc(-c2nc3cc(-c4cnc(N)nc4)ccc3n2C(C)(C)C)n1`
yes (1)

Determine whether measured pIC50 meets or exceeds 7 for `CC(C)(C)n1c(-c2cc(F)cnc2-n2cncn2)nc2cc(-c3cnc(N)nc3)ccc21`
yes (1)

API: above_or_equal(metric=pIC50, cutoff=7) for item `CC(C)(C)n1c(-c2ccncc2)nc2cc(-c3cnc(N)nc3)ccc21`
no (0)

Hi team, for `COc1cncc(-c2nc3cc(-c4cnc(N)nc4)ccc3n2C(C)(C)C)c1` , is the recorded pIC50 at or above 7?
no (0)
